Origin of the recorded values: patent US20210380702A1

koff reference
Biological target: T1, recombinant cynomolgus monkey PD-L1 with a C-terminal myc-myc-hexahistidine tag (cynomolgus monkey (Macaca fascicularis))
T1 construct: also called MfPD-L1-MMH; MfPD-L1-MMH Monomer
T1 sequence (chain, as listed by the source limits assumed): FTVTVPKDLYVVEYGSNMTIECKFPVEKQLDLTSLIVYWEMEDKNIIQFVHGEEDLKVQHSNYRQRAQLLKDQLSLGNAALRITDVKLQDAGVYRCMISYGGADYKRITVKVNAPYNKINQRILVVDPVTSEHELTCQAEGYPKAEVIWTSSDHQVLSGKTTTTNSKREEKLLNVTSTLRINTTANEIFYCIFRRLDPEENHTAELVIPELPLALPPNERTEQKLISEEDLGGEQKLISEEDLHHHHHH
Experiment: SPR (Biacore), mAb captured, 25C
Entry rule: numbers only, all in s⁻¹.

Here is how some binders turned out for koff.
binder: H1H9336P (antibody, human IgG1, V domains shown) VH: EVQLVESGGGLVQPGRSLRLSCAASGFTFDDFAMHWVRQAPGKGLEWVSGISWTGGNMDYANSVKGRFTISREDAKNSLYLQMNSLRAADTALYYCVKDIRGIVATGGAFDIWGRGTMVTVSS VL: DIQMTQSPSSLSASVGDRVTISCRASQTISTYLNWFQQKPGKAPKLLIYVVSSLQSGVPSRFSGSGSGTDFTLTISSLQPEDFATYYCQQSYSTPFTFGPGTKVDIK
quantitative_result: 0.000594
--
binder: H2aM8310N (antibody, mouse IgG2, V domains shown, also called H2M8310N) VH: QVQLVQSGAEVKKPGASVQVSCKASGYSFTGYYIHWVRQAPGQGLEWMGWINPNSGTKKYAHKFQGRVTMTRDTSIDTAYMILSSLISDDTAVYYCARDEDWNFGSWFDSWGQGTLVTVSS VL: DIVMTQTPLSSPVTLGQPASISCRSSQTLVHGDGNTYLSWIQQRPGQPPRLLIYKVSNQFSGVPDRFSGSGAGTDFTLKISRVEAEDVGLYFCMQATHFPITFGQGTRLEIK
quantitative_result: 0.000306

Now let's try a different one.
INPUT: Query koff for H2aM8323N (antibody, mouse IgG2, V domains shown, also called H2M8323N) VH: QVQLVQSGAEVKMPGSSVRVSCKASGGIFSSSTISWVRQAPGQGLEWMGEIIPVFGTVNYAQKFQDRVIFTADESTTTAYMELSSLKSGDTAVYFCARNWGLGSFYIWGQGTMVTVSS VL: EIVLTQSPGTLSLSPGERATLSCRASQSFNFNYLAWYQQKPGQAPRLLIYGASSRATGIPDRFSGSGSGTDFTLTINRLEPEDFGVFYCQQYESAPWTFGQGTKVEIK
OUTPUT: 0.00868
